All figures here come from patent US20250197387A1.

assayed system: BCL-XL (Homo sapiens, UniProt Q07817)
Construct: endogenous in cells; host or cells: MOLT-4
Sequence (Q07817 whole entry): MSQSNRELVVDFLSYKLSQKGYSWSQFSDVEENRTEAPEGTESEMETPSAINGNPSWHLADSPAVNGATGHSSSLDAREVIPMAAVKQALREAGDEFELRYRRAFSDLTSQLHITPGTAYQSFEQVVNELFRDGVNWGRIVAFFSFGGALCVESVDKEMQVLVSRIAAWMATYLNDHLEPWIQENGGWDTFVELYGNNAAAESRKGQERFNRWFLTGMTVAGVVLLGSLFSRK
assay overview: Bcl-xL ELISA degradation in MOLT-4 cells, 6 h
Type: cell-based
Catalogue of Dmax values

Check out these entries, answers already filled in.
molecular_string=C#Cc1ccc(CNC(=O)[C@@H]2C[C@@H](O)CN2C(=O)[C@@H](NC(=O)CCc2ccc(S(=O)(=O)NC(=O)c3nc(N4CCc5cccc(C(=O)Nc6nc7ccccc7s6)c5C4)ccc3-c3cnn(CC(C)C)c3C)cc2)C(C)(C)C)cc1 reported_result="50 to 75%"
molecular_string=Cc1ncsc1-c1ccc([C@H](C)NC(=O)[C@@H]2C[C@@H](O)CN2C(=O)[C@@H](NC(=O)N2CCC(N3CCN(C(=O)c4nc(N5CCc6cccc(C(=O)Nc7nc8ccccc8s7)c6C5)ccc4-c4cnn(CC5CCCCC5)c4C)CC3)CC2)C(C)(C)C)cc1 reported_result="< 50%"
molecular_string=C#Cc1ccc(CNC(=O)[C@@H]2C[C@@H](O)CN2C(=O)[C@@H](NC(=O)CCNCCS(=O)(=O)NC(=O)c2nc(N3CCc4cccc(C(=O)Nc5nc6cccnc6s5)c4C3)ccc2-c2cnn(CC3CCCCC3)c2C)C(C)(C)C)cc1 reported_result="> 75%"
molecular_string=Cc1ncsc1-c1ccc([C@H](C)NC(=O)[C@@H]2C[C@@H](O)CN2C(=O)[C@@H](NC(=O)C2CCN(C3CCN(S(=O)(=O)NC(=O)c4nc(N5CCc6cccc(C(=O)Nc7nc8ccccc8s7)c6C5)ccc4-c4cnn(CC5CCCCC5)c4C)CC3)CC2)C(C)(C)C)cc1 reported_result="> 75%"
molecular_string=Cc1ncsc1-c1ccc([C@H](C)NC(=O)[C@@H]2C[C@@H](O)CN2C(=O)[C@@H](NC(=O)C2CCN(c3ccc(S(=O)(=O)NC(=O)c4nc(N5CCc6cccc(C(=O)Nc7nc8ccccc8s7)c6C5)ccc4-c4cnn(CC5CCCCC5)c4C)c(Cl)c3)CC2)C(C)(C)C)cc1 reported_result="> 75%"

Data point: Cc1ncsc1-c1ccc([C@H](C)NC(=O)[C@@H]2C[C@@H](O)CN2C(=O)[C@@H](c2cc(N3CCN(c4ccc(S(=O)(=O)NC(=O)c5nc(N6CCc7cccc(C(=O)Nc8nc9ccccc9s8)c7C6)ccc5-c5cnn(CC6CCCCC6)c5C)cc4)CC3)no2)C(C)C)cc1 ; Dmax = > 75%

Data point: Cc1ncsc1-c1ccc(CNC(=O)[C@@H]2C[C@@H](O)CN2C(=O)[C@@H](NC(=O)[C@H]2CCN(c3ccc(S(=O)(=O)NC(=O)c4nc(N5CCc6cccc(C(=O)Nc7nc8ccccc8s7)c6C5)ccc4-c4cnn(CC5CCCCC5)c4C)cc3)C2)C(C)(C)C)cc1 ; Dmax = > 75%

Data point: C#Cc1ccc(CNC(=O)[C@@H]2C[C@@H](O)CN2C(=O)[C@@H](NC(=O)CCN(C)CCS(=O)(=O)NC(=O)c2nc(N3CCc4cccc(C(=O)Nc5nc6cccnc6s5)c4C3)ccc2-c2cnn(CC3CCCCC3)c2C)C(C)(C)C)cc1 ; Dmax = > 75%

Data point: Cc1ncsc1-c1ccc([C@H](C)NC(=O)[C@@H]2C[C@@H](O)CN2C(=O)[C@@H](NC(=O)COCCOCCS(=O)(=O)NC(=O)c2nc(N3CCc4cccc(C(=O)Nc5nc6ccccc6s5)c4C3)ccc2-c2cnn(CC3CCCCC3)c2C)C(C)(C)C)cc1 ; Dmax = > 75%

Data point: Cc1ncsc1-c1ccc([C@H](C)NC(=O)[C@@H]2C[C@@H](O)CN2C(=O)[C@@H](NC(=O)CCCCCCCCC(=O)N2CCN(CC#Cc3ccc(OCCCc4sc(N5CCc6cccc(C(=O)Nc7nc8ccccc8s7)c6C5)nc4C(=O)O)c(F)c3)CC2)C(C)(C)C)cc1 ; Dmax = > 75%
